As shown below, each of these compounds has a reported IC50 value.
# targetEntity: human mGlu7 (Homo sapiens)
# experimentalProtocol: mGlu7 assay on HEK-expressing human mGlu7: fluorescent cell-based Ca2+ mobilization (FLIPR384), inhibition of EC80 L-AP4 response
# testConditions: HEK-293 cells expressing hmGlu7, EC80 L-AP4 stimulation; mean of at least three independent experiments in duplicate; read-out: Ca^2+ Flux (mean IC50)

Use the examples below as a reference point.
Cc1c(OC2CC2)cccc1-c1ccc2c(=O)n(-c3ncccn3)ncc2c1 [1-43]; 100 to 1000 nM
Cc1ccc(-c2ccc3c(=O)n(-c4ccccn4)ncc3c2)c(C)c1 [1-10]; < 100 nM
COc1cccc(-c2ccc3c(=O)n(-c4ncc(NCCn5cncn5)cn4)ncc3c2)c1C [1-106]; < 100 nM
CCn1ncc2cc(-c3ccc(C)cc3C)ccc2c1=O [1-1]; 100 to 1000 nM
COc1cccc(-c2ccc3c(=O)n(-c4ncc(OC5CNC5)cn4)ncc3c2)c1C [1-69]; 100 to 1000 nM

Prompt: Bench note: what IC50 did Cc1ccc(-c2ccc3c(=O)n(-c4ccc(S(C)(=O)=O)cc4)ncc3c2)c(C)c1 [1-8] show?
Completion: 100 to 1000 nM

Prompt: # lookup: IC50 of COc1cccc(-c2ccc3c(=O)n(-c4ccc(C(=O)NCC(C)(C)O)cn4)ncc3c2)c1C [1-92]
Completion: < 100 nM

Prompt: What value of IC50 has been recorded for this entry: COc1cccc(-c2ccc3c(=O)n(-c4ncc(NC5CCC(O)C5)cn4)ncc3c2)c1C (stereo not drawn) [1-87]
Completion: < 100 nM

Prompt: Tell me the measured IC50 of COc1cccc(-c2ccc3c(=O)n(-c4ncc(NCC(C)(C)O)cn4)ncc3c2)c1C [1-88] , please.
Completion: < 100 nM

* * *

# targetEntity: human mGlu7 (Homo sapiens, UniProt Q14831)
# Sequence (Q14831 35-922 isoform Q14831-2 limits assumed): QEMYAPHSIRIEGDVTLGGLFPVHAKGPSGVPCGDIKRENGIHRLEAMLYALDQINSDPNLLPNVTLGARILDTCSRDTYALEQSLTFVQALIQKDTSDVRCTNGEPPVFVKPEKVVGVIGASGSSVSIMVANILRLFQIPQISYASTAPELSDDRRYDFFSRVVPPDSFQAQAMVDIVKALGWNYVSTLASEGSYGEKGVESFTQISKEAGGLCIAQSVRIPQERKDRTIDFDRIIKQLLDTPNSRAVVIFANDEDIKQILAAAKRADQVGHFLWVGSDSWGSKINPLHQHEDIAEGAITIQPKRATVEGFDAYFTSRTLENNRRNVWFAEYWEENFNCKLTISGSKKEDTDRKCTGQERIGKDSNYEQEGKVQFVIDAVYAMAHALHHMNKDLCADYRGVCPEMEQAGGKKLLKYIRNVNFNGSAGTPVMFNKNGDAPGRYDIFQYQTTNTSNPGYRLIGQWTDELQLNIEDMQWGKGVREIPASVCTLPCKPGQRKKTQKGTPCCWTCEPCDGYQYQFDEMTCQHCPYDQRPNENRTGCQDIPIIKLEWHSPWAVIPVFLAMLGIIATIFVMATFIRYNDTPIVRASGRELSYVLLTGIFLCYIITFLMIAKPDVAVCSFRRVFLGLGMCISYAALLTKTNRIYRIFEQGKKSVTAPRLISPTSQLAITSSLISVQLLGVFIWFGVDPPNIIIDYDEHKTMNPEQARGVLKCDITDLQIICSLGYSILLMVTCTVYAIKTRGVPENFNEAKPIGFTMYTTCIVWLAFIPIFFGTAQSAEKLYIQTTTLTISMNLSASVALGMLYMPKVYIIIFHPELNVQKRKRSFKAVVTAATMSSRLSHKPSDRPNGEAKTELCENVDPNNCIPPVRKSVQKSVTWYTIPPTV
# experimentalProtocol: mGlu7 assay on HEK-expressing human mGlu7: fluorescent cell-based Ca2+ mobilization (FLIPR384), inhibition of EC80 L-AP4 response
# testConditions: HEK-293 cells expressing hmGlu7, EC80 L-AP4 stimulation; mean of at least three independent experiments in duplicate; read-out: Ca^2+ Flux (mean IC50)
readout: IC50

Prompt: # query: IC50 | item O=c1c2ccc(-c3cccc4c3ccn4C3CC3)cc2cnn1-c1ncccn1 [1-48] | system: human mGlu7 (Homo sapiens, UniProt Q14831)
Completion: 100 to 1000 nM

* * *

# targetEntity: human mGlu7 (Homo sapiens)
# experimentalProtocol: mGlu7 assay on HEK-expressing human mGlu7: fluorescent cell-based Ca2+ mobilization (FLIPR384), inhibition of EC80 L-AP4 response
# testConditions: HEK-293 cells expressing hmGlu7, EC80 L-AP4 stimulation; mean of at least three independent experiments in duplicate; read-out: Ca^2+ Flux (mean IC50)
readout: IC50

Example cases with answers are listed next.
COc1cccc(-c2ccc3c(=O)n(C4CCOCC4)ncc3c2)c1C; 100 to 1000 nM
COc1cccc(-c2ccc3c(=O)n(-c4ncc(NCCn5ccnc5)cn4)ncc3c2)c1C; < 100 nM
COc1cccc(-c2ccc3c(=O)n(CCN4CCOCC4)ncc3c2)c1C; 100 to 1000 nM
CCOc1cnc(-n2ncc3cc(-c4cccc(OC)c4C)ccc3c2=O)nc1; < 100 nM
COc1cccc(-c2ccc3c(=O)n(-c4ncc(NC5CCC(O)CC5)cn4)ncc3c2)c1C (stereo not drawn); < 100 nM

Prompt: // map COc1cccc(-c2ccc3c(=O)n(-c4ncc(N5CCCC(O)C5)cn4)ncc3c2)c1C (stereo not drawn) to recorded IC50 (system: human mGlu7 (Homo sapiens))
Completion: < 100 nM

Prompt: API: value(readout=IC50, system=human mGlu7 (Homo sapiens)) for record Cc1ccc(-c2ccc3c(=O)n(-c4ncc(N5CCC(O)C5)cn4)ncc3c2)c(C)c1 (stereo not drawn)
Completion: < 100 nM

Prompt: Enter reported IC50 observed with human mGlu7 (Homo sapiens) for COc1cccc(-c2ccc3c(=O)n(-c4ncccn4)ncc3c2)c1F
Completion: < 100 nM

Prompt: Record lookup: for human mGlu7 (Homo sapiens), what IC50 belongs to CN1CCc2c(-c3ccc4c(=O)n(-c5ncccn5)ncc4c3)cccc21 ?
Completion: < 100 nM

* * *

# targetEntity: human mGlu7 (Homo sapiens)
# experimentalProtocol: mGlu7 assay on HEK-expressing human mGlu7: fluorescent cell-based Ca2+ mobilization (FLIPR384), inhibition of EC80 L-AP4 response
# testConditions: HEK-293 cells expressing hmGlu7, EC80 L-AP4 stimulation; mean of at least three independent experiments in duplicate; read-out: Ca^2+ Flux (mean IC50)
readout: IC50

Examples with answers:
COc1cccc(-c2ccc3c(=O)n(-c4ncccn4)ncc3c2)c1; 0.1 to 1 µM
COc1cccc(-c2ccc3c(=O)n(-c4ccccn4)ncc3c2)c1C; < 0.1 µM
Cc1c(OC2CC2)cccc1-c1ccc2c(=O)n(-c3ccccn3)ncc2c1; < 0.1 µM

Prompt: Endpoint output: IC50 of COc1cccc(-c2ccc3c(=O)n(-c4ncc(N5CCSCC5)cn4)ncc3c2)c1C . Value?
Completion: 0.1 to 1 µM

Prompt: Which IC50 reading was recorded for the compound COc1ccccc1-n1ncc2cc(-c3cccc(N4CCC4)c3)ccc2c1=O ?
Completion: 0.1 to 1 µM

Prompt: Item under review: COc1cccc(-c2ccc3c(=O)n(-c4cccc(C)n4)ncc3c2)c1 . Reported IC50?
Completion: 0.1 to 1 µM

Prompt: // returns reported IC50 for input Cc1ccc(-c2ccc3c(=O)n(-c4ccccc4F)ncc3c2)c(C)c1
Completion: 0.1 to 1 µM

Prompt: Any idea what its IC50 is? The compound is COc1cccc(-c2ccc3c(=O)n(-c4ncc(N5CCN(C)CC5)cn4)ncc3c2)c1C
Completion: 0.1 to 1 µM
